system: 313798-341-R-J2-PDC spheroids, viability; assay: Anticancer human tumor 313798-341-R-J2-PDC patient-derived cervical squamous cell carcinoma cell line growth inhibition [PI3K]; settings: second compound 0.01 µM; first compound 0.00316 µM; active compounds read low; spheroids with HUVEC and MSC;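 also: spheroids exposed to compounds for seven days; 100% = DMSO vehicle control viability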
ENDPOINT: viability, T/C (%)

1) CCN1CCN(Cc2ccc(Nc3ncc(F)c(-c4cc(F)c5nc(C)n(C(C)C)c5c4)n3)nc2)CC1 + CC(Nc1ccc2c(c1)OCCn1cc(N3C(=O)OCC3C(F)F)nc1-2)C(N)=O	94.9
2) Cn1ncnc1[C@H]1c2n[nH]c(=O)c3cc(F)cc(c23)N[C@@H]1c1ccc(F)cc1 + COc1c(OCCCN2CCOCC2)ccc2c3n(c(=NC(=O)c4cnc(N)nc4)nc12)CCN3	99
3) CC(=O)c1c(C)c2cnc(Nc3ccc(N4CCNCC4)cn3)nc2n(C2CCCC2)c1=O + CC(Nc1ccc2c(c1)OCCn1cc(N3C(=O)OCC3C(F)F)nc1-2)C(N)=O	113
4) CC(C)n1nc(-c2ccc3oc(N)nc3c2)c2c(N)ncnc21 + CC(Nc1ccc2c(c1)OCCn1cc(N3C(=O)OCC3C(F)F)nc1-2)C(N)=O	100
